Target: human Nav1.8 (hNav1.8) ion channel (Homo sapiens, UniProt Q9Y5Y9)
Construct: expressed in transfected cells
Sequence (Q9Y5Y9 whole entry): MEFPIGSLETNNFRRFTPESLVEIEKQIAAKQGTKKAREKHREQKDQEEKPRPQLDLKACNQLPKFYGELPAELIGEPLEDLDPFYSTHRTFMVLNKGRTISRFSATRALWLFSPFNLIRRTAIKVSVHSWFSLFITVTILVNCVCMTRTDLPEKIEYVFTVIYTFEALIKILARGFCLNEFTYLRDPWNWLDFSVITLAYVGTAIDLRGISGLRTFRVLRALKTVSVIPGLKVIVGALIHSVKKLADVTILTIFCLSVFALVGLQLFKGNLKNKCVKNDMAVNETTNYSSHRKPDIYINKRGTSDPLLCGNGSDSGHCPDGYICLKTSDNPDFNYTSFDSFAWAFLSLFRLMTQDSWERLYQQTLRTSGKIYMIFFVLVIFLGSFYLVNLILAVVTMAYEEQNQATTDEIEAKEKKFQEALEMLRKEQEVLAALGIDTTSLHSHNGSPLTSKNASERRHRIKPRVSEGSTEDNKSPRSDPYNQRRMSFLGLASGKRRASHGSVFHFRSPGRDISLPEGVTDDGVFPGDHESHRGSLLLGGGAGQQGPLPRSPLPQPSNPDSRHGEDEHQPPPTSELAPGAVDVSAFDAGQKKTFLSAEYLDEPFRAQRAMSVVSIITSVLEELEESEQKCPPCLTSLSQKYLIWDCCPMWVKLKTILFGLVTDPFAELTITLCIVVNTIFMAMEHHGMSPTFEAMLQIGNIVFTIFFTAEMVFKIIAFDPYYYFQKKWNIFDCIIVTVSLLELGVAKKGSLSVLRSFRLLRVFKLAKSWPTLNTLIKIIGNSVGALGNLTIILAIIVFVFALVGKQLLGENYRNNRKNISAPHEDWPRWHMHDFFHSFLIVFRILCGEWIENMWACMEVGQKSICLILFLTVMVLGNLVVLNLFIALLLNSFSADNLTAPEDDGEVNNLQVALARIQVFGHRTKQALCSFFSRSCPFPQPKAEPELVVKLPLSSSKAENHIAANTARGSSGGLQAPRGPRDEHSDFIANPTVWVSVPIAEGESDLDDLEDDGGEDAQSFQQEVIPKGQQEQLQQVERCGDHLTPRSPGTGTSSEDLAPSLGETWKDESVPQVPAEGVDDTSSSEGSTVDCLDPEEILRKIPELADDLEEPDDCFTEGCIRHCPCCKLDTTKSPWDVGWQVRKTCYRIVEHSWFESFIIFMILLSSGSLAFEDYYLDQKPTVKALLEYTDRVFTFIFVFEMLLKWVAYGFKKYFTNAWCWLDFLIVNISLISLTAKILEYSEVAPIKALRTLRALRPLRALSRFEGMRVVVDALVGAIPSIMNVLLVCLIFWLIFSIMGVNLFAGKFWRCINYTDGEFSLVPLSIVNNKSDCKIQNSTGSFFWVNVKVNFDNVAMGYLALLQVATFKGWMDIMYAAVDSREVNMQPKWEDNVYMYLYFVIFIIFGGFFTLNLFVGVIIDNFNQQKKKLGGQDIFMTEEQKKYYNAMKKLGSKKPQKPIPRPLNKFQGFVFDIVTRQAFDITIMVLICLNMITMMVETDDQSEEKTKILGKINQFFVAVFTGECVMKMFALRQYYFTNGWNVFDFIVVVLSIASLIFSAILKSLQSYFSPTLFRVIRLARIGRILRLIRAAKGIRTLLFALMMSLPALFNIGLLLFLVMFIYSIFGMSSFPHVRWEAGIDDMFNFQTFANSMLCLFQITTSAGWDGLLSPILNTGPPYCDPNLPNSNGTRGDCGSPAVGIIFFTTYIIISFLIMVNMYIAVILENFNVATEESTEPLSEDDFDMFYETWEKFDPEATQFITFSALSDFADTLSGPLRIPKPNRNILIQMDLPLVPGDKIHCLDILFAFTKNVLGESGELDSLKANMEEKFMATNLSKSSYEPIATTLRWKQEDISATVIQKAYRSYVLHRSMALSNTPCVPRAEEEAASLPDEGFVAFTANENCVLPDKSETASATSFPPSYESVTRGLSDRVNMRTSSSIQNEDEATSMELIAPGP
Assay: Inhibition of human Nav1.8 stably expressed in SH-SY-5Y cells (membrane potential dye fluorescence assay)
Assay type: cell-based
Conditions: SH-SY-5Y hNav1.8 cells; FLIPR membrane potential dye; 10 μM pyrethroid, 250 nM TTX; test concentration range 100 μM-0.05 μM; read-out: hNav1.8 IC50
pIC50: −log10 of the molar value. Where a name gives a salt, the structure may show the parent alone.
Threshold rule: pIC50 greater than or equal to 6 is Y; below that, N.

Cc1ccccc1C(C)N1CC2CC1CN2C(=O)Nc1ccc(Oc2ccccc2)cc1 (stereo not drawn) [Example 4] = Y
O=C(Nc1ccc(Oc2ccccc2F)cc1)N1CC2CC1CN2C1Cc2ccccc2C1 (stereo not drawn) [Example 113] = Y
Cc1ccc(Oc2ccc(NC(=O)N3CC4CC3CN4C(C)c3ccc(Cl)cc3Cl)cc2)cc1 (stereo not drawn) [Example 123] = N
Cc1ccc(Oc2ccc(NC(=O)N3CC4CC3CN4C(C)c3ccc(Cl)cc3Cl)cc2)cc1 (stereo not drawn) [Example 127] = N
Cc1ccccc1C(C)N1CC2CC1CN2C(=O)Nc1ccc(Cc2ccccc2)cc1 (stereo not drawn) [Example 34] = Y
O=C(Nc1ccc(Oc2ccc(F)cc2)cc1)N1CC2CN(C3Cc4ccccc4C3)CC2C1 (stereo not drawn) [Example 112] = Y
Cc1ccccc1C(C)N1CC2CC1CN2C(=O)Nc1ccc(Oc2ccccc2)cc1 (stereo not drawn) [Example 30] = Y
O=C(Nc1ccc(Oc2ccccc2)cc1)N1CC2CC1CN2C1CCc2cccc(Cl)c21 (stereo not drawn) [Example 141] = Y
CC(c1ccccc1Cl)N1CC2CC1CN2C(=O)c1ccc(Oc2ccc(F)cc2)c(F)c1 (stereo not drawn) [Example 178, methanesulfonate salt] = Y
CC(c1ccccc1Cl)N1CCC2(CCN(C(=O)Nc3ccc(Oc4ccc(F)cc4)cc3)C2)C1 (stereo not drawn) [Example 111] = Y
